Value source: patent US11014895B2

Target: IDO1 enzyme in the Hela cell (Homo sapiens, UniProt P14902)
Construct: endogenous in cells; host or cells: HeLa cells stimulated with interferon γ (100 ng/ml)
Sequence (P14902 whole entry): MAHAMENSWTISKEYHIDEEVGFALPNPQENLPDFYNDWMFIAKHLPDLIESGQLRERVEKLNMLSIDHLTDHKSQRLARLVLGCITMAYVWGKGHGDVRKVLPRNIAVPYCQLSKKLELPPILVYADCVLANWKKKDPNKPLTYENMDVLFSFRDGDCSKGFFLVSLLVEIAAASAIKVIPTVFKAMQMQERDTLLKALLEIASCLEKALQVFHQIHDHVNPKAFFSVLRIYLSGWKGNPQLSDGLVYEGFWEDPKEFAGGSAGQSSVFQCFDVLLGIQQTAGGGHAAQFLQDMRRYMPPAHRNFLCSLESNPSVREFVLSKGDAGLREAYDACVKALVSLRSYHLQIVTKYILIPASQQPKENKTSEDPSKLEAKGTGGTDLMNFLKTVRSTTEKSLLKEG
Assay: Cell activity: interferon γ-stimulated Hela cells, absorbance of supernatant at 480 nm
Type: cell-based
Conditions: interferon γ 100 ng/ml, 72 hours
Protocol: (2) Method for Determining Cell Activity Hela cells were cultured and passaged in a DMEM medium supplemented with antibiotics in a 37° C. […] The above centrifuged supernatant was transferred to a 384-well microplate (20 μl/well), then 20 μl of 2% didimethylaminobenzaldehyde acetic acid solution was added to each well, shaken and mixed evenly, then photometric absorption was performed at 480 nm, and values were measured.
measurement-label: IC50

>>> print(df.to_string())
                                    compound  observed_result
 0  N=C(Nc1ccccc1)Nc1nocc1/C(=N/O)Nc1ccc(F)c(Br)c1 [Embodiment 158]      0.1 to 1 µM
 1  N#Cc1ccc(NC(=O)Nc2nonc2/C(=N/O)Nc2ccc(F)cc2)cc1 [Embodiment 57]           > 1 µM
 2  O=C(NCCCO)Nc1conc1/C(=N/O)Nc1ccc(F)c(Br)c1 [Embodiment 109]       < 0.001 µM
 3  O=C(Nc1ccoc1)Nc1nonc1/C(=N/O)Nc1ccc(F)c(Br)c1 [Embodiment 41]      0.1 to 1 µM
 4  O/N=C(\Nc1ccc(F)c(Cl)c1)c1nocc1NC(=S)Nc1ccccc1 [Embodiment 131]      0.1 to 1 µM
 5  COc1ccc(NC(=S)Nc2cocc2/C(=N/O)Nc2ccc(F)c(Br)c2)cc1 [Embodiment 136]           > 1 µM
 6  NCCNC(=O)Nc1nonc1/C(=N/O)Nc1ccc(F)c(Br)c1 [Embodiment 16]      0.1 to 1 µM
 7  NC1CCC(NC(=O)Nc2nocc2/C(=N/O)Nc2ccc(F)c(Br)c2)CC1 (centres unmarked) [Embodiment 87]       < 0.001 µM
 8  COc1ccc(NC(=N)Nc2cocc2/C(=N/O)Nc2ccc(F)c(Br)c2)cc1 [Embodiment 160]      0.1 to 1 µM
 9  N=C(Nc1nonc1/C(=N/O)Nc1ccc(F)c(Br)c1)NC1CCCC1 [Embodiment 146]           > 1 µM
10  NCCNC(=S)Nc1nonc1/C(=N/O)Nc1ccc(F)c(Br)c1 [Embodiment 129]      0.1 to 1 µM
11  CC1CCC(NC(=O)Nc2nonc2/C(=N/O)Nc2ccc(F)c(Br)c2)CC1 (centres unmarked) [Embodiment 9]           > 1 µM
12  O=C(Nc1ccccc1)Nc1nonc1/C(=N/O)Nc1ccc(F)cc1 [Embodiment 51]      0.1 to 1 µM
13  O=C(Nc1nonc1/C(=N/O)Nc1ccc(F)c(Br)c1)NC1CC1 [Embodiment 32]      0.1 to 1 µM
14  O=C(Nc1ccccc1)Nc1cocc1/C(=N/O)Nc1ccc(F)c(Br)c1 [Embodiment 60]           > 1 µM
15  COc1ccccc1NC(=O)Nc1nonc1/C(=N/O)Nc1ccc(F)c(Br)c1 [Embodiment 3]           > 1 µM
16  Cc1ccc(NC(=O)Nc2nonc2/C(=N/O)Nc2ccc(F)c(Br)c2)cc1 [Embodiment 4]           > 1 µM
17  N=C(NCCO)Nc1nonc1/C(=N/O)Nc1ccc(F)c(Br)c1 [Embodiment 152]       < 0.001 µM
18  CS(=O)(=O)NCCCNC(=O)Nc1nonc1/C(=N/O)Nc1ccc(F)c(Br)c1 [Embodiment 17]       < 0.001 µM
19  COc1ccc(NC(=S)Nc2nocc2/C(=N/O)Nc2ccc(F)c(Br)c2)cc1 [Embodiment 133]      0.1 to 1 µM
20  OCCNC(=S)Nc1nonc1/C(=N/O)Nc1ccc(F)c(Br)c1 [Embodiment 128]       < 0.001 µM
21  O=C(Nc1nonc1/C(=N/O)Nc1ccc(F)c(Br)c1)Nc1c[nH]c2ccccc12 [Embodiment 37]      0.1 to 1 µM
22  O=C(Nc1ccc(O)cc1)Nc1nonc1/C(=N/O)Nc1ccc(F)c(Cl)c1 [Embodiment 23]       < 0.001 µM
23  O=C(Nc1ncncn1)Nc1nonc1/C(=N/O)Nc1ccc(F)c(Br)c1 [Embodiment 44]           > 1 µM
24  COc1ccc(NC(=O)Nc2nonc2/C(=N/O)Nc2ccc(F)c(Br)c2)cc1C(F)(F)F [Embodiment 21]      0.1 to 1 µM
25  NCCCNC(=O)Nc1cocc1/C(=N/O)Nc1ccc(F)c(Br)c1 [Embodiment 67]      0.1 to 1 µM
26  OCCCNC(=S)Nc1nonc1/C(=N/O)Nc1ccc(F)c(Br)c1 [Embodiment 127]       < 0.001 µM
27  NC1CCC(NC(=O)Nc2cocc2/C(=N/O)Nc2ccc(F)c(Br)c2)CC1 (centres unmarked) [Embodiment 66]      0.1 to 1 µM
28  CS(=O)(=O)N1CCC(NC(=O)Nc2nonc2/C(=N/O)Nc2ccc(F)c(Br)c2)CC1 [Embodiment 12]      0.1 to 1 µM
29  COc1ccc(NC(=O)Nc2nocc2/C(=N/O)Nc2ccc(F)c(Br)c2)cc1 [Embodiment 79]      0.1 to 1 µM
30  N=C(Nc1ccccc1)Nc1cocc1/C(=N/O)Nc1ccc(F)c(Br)c1 [Embodiment 161]      0.1 to 1 µM
31  O=C(Nc1cc[nH]c1)Nc1nonc1/C(=N/O)Nc1ccc(F)c(Br)c1 [Embodiment 40]      0.1 to 1 µM
32  O=C(Nc1nocc1/C(=N/O)Nc1ccc(F)c(Br)c1)NC1CCCC1 [Embodiment 83]           > 1 µM
33  O=C(Nc1cocc1/C(=N/O)Nc1ccc(F)c(Br)c1)NC1CCNCC1 [Embodiment 64]      0.1 to 1 µM
34  O=C(Nc1conc1/C(=N/O)Nc1ccc(F)c(Cl)c1)NC1CCCCC1 [Embodiment 114]       < 0.001 µM

====

Parameter IC50: see the listing below.
Biological target: IDO1 enzyme (Homo sapiens, UniProt P14902)
Experiment: Determination of biochemical activity of IDO1 enzyme (absorbance at 320 nm)
Details: room temperature, 3 hours
measurement-label: IC50

In [3]: df
Out[3]:
                                   compound                               test_system  observed_result
0  O/N=C(\Nc1ccc(F)c(Br)c1)c1nonc1NC(=S)NC1CCCC1 [Embodiment 122]  IDO1 enzyme (Homo sapiens, UniProt P14902)           > 1 µM
1  NC1CCC(NC(=O)Nc2cocc2/C(=N/O)Nc2ccc(F)c(Br)c2)CC1 (stereo not drawn) [Embodiment 66]  IDO1 enzyme (Homo sapiens, UniProt P14902)      0.1 to 1 µM
2  O=C(NCCO)Nc1nonc1/C(=N/O)Nc1ccc(F)c(Cl)c1 [Embodiment 28]  IDO1 enzyme (Homo sapiens, UniProt P14902)       < 0.001 µM
3  O=C(Nc1ccccc1)Nc1cocc1/C(=N/O)Nc1ccc(F)c(Br)c1 [Embodiment 60]  IDO1 enzyme (Homo sapiens, UniProt P14902)           > 1 µM
4  CC(C)NC(=O)Nc1cocc1/C(=N/O)Nc1ccc(F)c(Br)c1 [Embodiment 71]  IDO1 enzyme (Homo sapiens, UniProt P14902)      0.1 to 1 µM
5  O=C(Nc1nonc1/C(=N/O)Nc1ccc(F)c(Br)c1)NC1CCC1 [Embodiment 31]  IDO1 enzyme (Homo sapiens, UniProt P14902)      0.1 to 1 µM
6  O=C(NCCO)Nc1cocc1/C(=N/O)Nc1ccc(F)c(Br)c1 [Embodiment 68]  IDO1 enzyme (Homo sapiens, UniProt P14902)      0.1 to 1 µM
7  Nc1ccc(NC(=S)Nc2nonc2/C(=N/O)Nc2ccc(F)c(Br)c2)cc1 [Embodiment 118]  IDO1 enzyme (Homo sapiens, UniProt P14902)       < 0.001 µM
8  O/N=C(\Nc1ccc(F)c(Br)c1)c1nonc1NC(=S)Nc1ccc(O)cc1 [Embodiment 117]  IDO1 enzyme (Homo sapiens, UniProt P14902)       < 0.001 µM

====

Target: UniProt:P14902
Test: Determination of biochemical activity of IDO1 enzyme (absorbance at 320 nm)
Conditions: room temperature, 3 hours
measurement-label: IC50

                                   molecule  measurement_label  observed_result
0  CCc1cccc(NC(=O)Nc2nonc2/C(=N/O)Nc2ccc(F)c(Br)c2)c1 [Embodiment 2]               IC50      0.1 to 1 µM
1  O=C(Nc1nocc1/C(=N/O)Nc1ccc(F)c(Br)c1)NC1CCCCC1 [Embodiment 82]               IC50      0.1 to 1 µM
2  O=C(Nc1ccc(F)cc1)Nc1nonc1/C(=N/O)Nc1ccc(F)c(Br)c1 [Embodiment 5]               IC50           > 1 µM
3  COc1ccccc1NC(=O)Nc1nonc1/C(=N/O)Nc1ccc(F)c(Br)c1 [Embodiment 3]               IC50           > 1 µM
4  O=C(Nc1nocc1/C(=N/O)Nc1ccc(F)c(Br)c1)NC1CCCC1 [Embodiment 83]               IC50           > 1 µM
5  O=C(Nc1cc[nH]c1)Nc1cocc1/C(=N/O)Nc1ccc(F)c(Br)c1 [Embodiment 76]               IC50           > 1 µM
6  COc1ccc(NC(=S)Nc2cocc2/C(=N/O)Nc2ccc(F)c(Br)c2)cc1 [Embodiment 136]               IC50           > 1 µM
7  CS(=O)(=O)NCCNC(=O)Nc1nonc1/C(=N/O)Nc1ccc(F)c(Cl)c1 [Embodiment 29]               IC50       < 0.001 µM
